# Tested on: 292921-168-R-J2-PDC KRAS tumor spheroid viability;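 further: drug exposure lasted seven days after spheroids formed for three days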
# TEST PROTOCOL: Anticancer human tumor 292921-168-R-J2-PDC patient-derived pancreatic carcinoma cell line growth inhibition [KRAS2]
# CONDITION DESCRIPTION: curve of first compound; second compound 3.16 µM; spheroids with HUVEC and MSC
READOUT KIND: IC50

Reported IC50 ( CC(=O)Nc1cccc(-n2c(=O)n(C3CC3)c(=O)c3c(Nc4ccc(I)cc4F)n(C)c(=O)c(C)c32)c1 + C=CC(=O)N1CCN(c2nc(OCC3CCCN3C)nc3c2CCN(c2cccc4cccc(C)c24)C3)CC1CC#N ) = < 0.1 nM

compound CC1OCC2(CCN(c3cnc(Sc4ccnc(N)c4Cl)c(N)n3)CC2)C1N (stereo unspecified) + COc1cc2nc(C)nc(NC(C)c3cc(N)cc(C(F)(F)F)c3)c2cc1OC1CCOC1 , IC50 observed: 53 nM

Just so you know, measured IC50 for CCNC(=O)CC1N=C(c2ccc(Cl)cc2)c2cc(OC)ccc2-n2c(C)nnc21 (stereo unspecified) + C=CC(=O)N1CCN(c2nc(OCC3CCCN3C)nc3c2CCN(c2cccc4cccc(C)c24)C3)CC1CC#N came out at < 31.6 nM

// COC(=O)c1ccc2c(C(=Nc3ccc(N(C)C(=O)CN4CCN(C)CC4)cc3)c3ccccc3)c(O)[nH]c2c1 + CC1OCC2(CCN(c3cnc(Sc4ccnc(N)c4Cl)c(N)n3)CC2)C1N : IC50 value = 105 nM

# IC50 of CC(C)NCC(C(=O)N1CCN(c2ncnc3c2C(C)CC3O)CC1)c1ccc(Cl)cc1 (stereo unspecified) + C=CC(=O)N1CCN(c2nc(OCC3CCCN3C)nc3c2CCN(c2cccc4cccc(C)c24)C3)CC1CC#N = < 31.6 nM

// COc1cc2nccc(Oc3ccc(NC(=O)C4(C(=O)Nc5ccc(F)cc5)CC4)cc3)c2cc1OC + CC1OCC2(CCN(c3cnc(Sc4ccnc(N)c4Cl)c(N)n3)CC2)C1N : IC50 value = < 31.6 nM

Summary for this compound, COC(=O)c1ccc2c(C(=Nc3ccc(N(C)C(=O)CN4CCN(C)CC4)cc3)c3ccccc3)c(O)[nH]c2c1 + C=CC(=O)N1CCN(c2nc(OCC3CCCN3C)nc3c2CCN(c2cccc4cccc(C)c24)C3)CC1CC#N : IC50 is < 31.6 nM

IC50 recorded for this compound, CC(=O)Nc1cccc(-n2c(=O)n(C3CC3)c(=O)c3c(Nc4ccc(I)cc4F)n(C)c(=O)c(C)c32)c1 + COc1cc2nc(C)nc(NC(C)c3cc(N)cc(C(F)(F)F)c3)c2cc1OC1CCOC1 , is 0.105 nM

Form: compound = CC(C)n1nc(-c2ccc3oc(N)nc3c2)c2c(N)ncnc21 + CNCc1ccccc1-c1csc(C(C)Nc2nc(C)nc3cc(OC)c(OC)cc23)c1 ; IC50 = < 0.316 nM

Per the records, this compound ( CC(=O)Nc1cccc(-n2c(=O)n(C3CC3)c(=O)c3c(Nc4ccc(I)cc4F)n(C)c(=O)c(C)c32)c1 + CC1OCC2(CCN(c3cnc(Sc4ccnc(N)c4Cl)c(N)n3)CC2)C1N ) has IC50 equal to < 0.1 nM

Reported IC50 of CCNC(=O)CC1N=C(c2ccc(Cl)cc2)c2cc(OC)ccc2-n2c(C)nnc21 (stereo unspecified) + C=CC(=O)N1CCN(c2nc(=O)n(-c3c(C)ccnc3C(C)C)c3nc(-c4c(O)cccc4F)c(F)cc23)C(C)C1 : 530 nM
